- tgt: CAMKK2 (human)
- assay.summary: KINOMEscan competition binding
- measurement.conditions: compound 10.0 µM
attribute.measured: kinase still bound, per cent of control

Example entries and their recorded answers appear below.
- mol: "Cc1ccc(C(=O)Nc2cccc(C(C)(C)C)c2)cc1-c1ccc(C(=O)NCC2CC2)cc1"
  kinase still bound, per cent of control: "no effect (inactive)"
- mol: "CC(=O)c1c(-c2ccncc2)[nH]c(-c2ccncc2)c1C"
  kinase still bound, per cent of control: "no effect (inactive)"
- mol: "NC(=O)c1ccc(-c2cc(C(N)=O)c(N)c(-c3ccc(S(N)(=O)=O)cc3)c2)cc1"
  kinase still bound, per cent of control: "no effect (inactive)"
- mol: "Cc1ccc(NC(=O)c2cccc(N3CCCCC3)c2)cc1-c1ccc(C(=O)NCC2CC2)cc1"
  kinase still bound, per cent of control: "no effect (inactive)"
- mol: "CCS(=O)(=O)Nc1ccc2c(c1)[C@H](/C(=N/c1ccc(CN3CCCCC3)cc1)c1ccccc1)C(=O)N2"
  kinase still bound, per cent of control: "0.1%"

Ask: Any idea what its kinase still bound, per cent of control is? The molecule is NC(=O)c1ccc(Nc2cc(-c3ccc(F)cc3)[nH]n2)cc1
Result: no effect (inactive)

Ask: Any idea what its kinase still bound, per cent of control is? The molecule is Cc1cc(Nc2cc(N3CCN(C)CC3)nc(Sc3ccc(NC(=O)C4CC4)cc3)n2)[nH]n1
Result: no effect (inactive)

Ask: Any idea what its kinase still bound, per cent of control is? The molecule is NC(=O)Nc1sc(-c2ccc(F)cc2)cc1C(N)=O
Result: no effect (inactive)

Ask: Any idea what its kinase still bound, per cent of control is? The molecule is O=C1Nc2ccccc2/C1=C/c1ccc[nH]1
Result: no effect (inactive)

Ask: Any idea what its kinase still bound, per cent of control is? The molecule is Nc1ncnc2c1c(-c1cccc(O)c1)cn2C1CCNCC1
Result: no effect (inactive)

Ask: Any idea what its kinase still bound, per cent of control is? The molecule is Cc1ccc(O)cc1Nc1ccnc(Nc2cccc(C(N)=O)c2)n1
Result: no effect (inactive)

Ask: Any idea what its kinase still bound, per cent of control is? The molecule is c1ccc(-c2n[nH]cc2-c2ccnc3ccccc23)nc1
Result: no effect (inactive)

---

- tgt: PLK4 (human)
- assay.summary: KINOMEscan competition binding
- measurement.conditions: compound 10.0 µM
attribute.measured: kinase still bound, per cent of control

Example entries and their recorded answers appear below.
- mol: "Nc1ncnc2c1c(-c1cccc(O)c1)cn2C1CCNCC1"
  measured.value: "no effect (inactive)"
- mol: "Cc1ccc(NC(=O)c2cccc(N3CCCCC3)c2)cc1-c1ccc(C(=O)NCC2CC2)cc1"
  measured.value: "no effect (inactive)"
- mol: "Cc1ccc(C(=O)Nc2cccc(C(C)(C)C)c2)cc1-c1ccc(C(=O)NCC2CC2)cc1"
  measured.value: "no effect (inactive)"
- mol: "c1ccc(-c2n[nH]cc2-c2ccnc3ccccc23)nc1"
  measured.value: "no effect (inactive)"
- mol: "CCS(=O)(=O)Nc1ccc2c(c1)[C@H](/C(=N/c1ccc(CN3CCCCC3)cc1)c1ccccc1)C(=O)N2"
  measured.value: "0%"
- mol: "Cc1cc(Nc2cc(N3CCN(C)CC3)nc(Sc3ccc(NC(=O)C4CC4)cc3)n2)[nH]n1"
  measured.value: "0%"
- mol: "CC(=O)c1c(-c2ccncc2)[nH]c(-c2ccncc2)c1C"
  measured.value: "no effect (inactive)"

Ask: Any idea what its kinase still bound, per cent of control is? The compound is NC(=O)c1ccc(-c2cc(C(N)=O)c(N)c(-c3ccc(S(N)(=O)=O)cc3)c2)cc1
Result: no effect (inactive)
